molecular target: LXRβ (Homo sapiens, UniProt P55055); construct: Co-transfection expression plasmids, comprising full-length LXRα (pCMX-h LXRα[…] or LXRβ (pCMX-hLXRβ)); test: Co-transfection assay (LXRE luciferase reporter), LXRβ; conditions: CV-1 cells transfected with pCMX-hLXRβ and LXREx1-Tk-Luciferase; 20 hours incubation
Sequence (P55055 whole entry): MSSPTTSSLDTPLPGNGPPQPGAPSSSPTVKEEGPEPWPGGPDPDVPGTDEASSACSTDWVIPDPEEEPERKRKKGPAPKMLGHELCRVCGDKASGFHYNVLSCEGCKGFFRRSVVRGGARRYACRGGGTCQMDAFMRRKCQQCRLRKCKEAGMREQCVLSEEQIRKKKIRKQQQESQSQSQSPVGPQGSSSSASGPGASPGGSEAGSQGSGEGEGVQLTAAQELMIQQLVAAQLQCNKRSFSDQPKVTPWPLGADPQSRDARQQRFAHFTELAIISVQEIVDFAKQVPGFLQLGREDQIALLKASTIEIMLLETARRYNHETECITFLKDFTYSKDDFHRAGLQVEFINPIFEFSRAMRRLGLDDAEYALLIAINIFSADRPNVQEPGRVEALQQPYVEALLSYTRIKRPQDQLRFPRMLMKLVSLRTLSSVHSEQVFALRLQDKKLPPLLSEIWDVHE
Sequence (P19793 whole entry partner): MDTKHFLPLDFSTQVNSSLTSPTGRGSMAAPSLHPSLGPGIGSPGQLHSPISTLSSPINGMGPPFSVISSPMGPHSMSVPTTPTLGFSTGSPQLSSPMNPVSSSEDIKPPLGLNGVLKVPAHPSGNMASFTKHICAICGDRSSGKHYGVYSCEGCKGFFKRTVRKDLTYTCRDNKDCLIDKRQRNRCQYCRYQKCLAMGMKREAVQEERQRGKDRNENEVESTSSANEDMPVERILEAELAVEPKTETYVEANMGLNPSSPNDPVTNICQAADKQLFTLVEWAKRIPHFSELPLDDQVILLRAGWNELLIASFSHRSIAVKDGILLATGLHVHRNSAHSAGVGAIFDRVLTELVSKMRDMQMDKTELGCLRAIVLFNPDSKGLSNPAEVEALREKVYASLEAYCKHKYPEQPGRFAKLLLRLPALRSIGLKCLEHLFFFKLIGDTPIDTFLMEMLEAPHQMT
Measure: EC50

The following compounds have reported results that may help.
| Compound | Subject of test | EC50 |
| --- | --- | --- |
| CNS(=O)(=O)c1cccc(-c2ccc(-n3cc(C(F)F)nc3C)c(-c3cnnn3Cc3ccc(Cl)cc3)c2)c1 [Example 246] | LXRβ (Homo sapiens, UniProt P55055) | 475 nM |
| Cc1nc(C(F)F)cn1-c1ccc(-c2cc(F)c(CO)c(S(C)(=O)=O)c2)cc1-n1nncc1-c1ccc(OC(F)(F)F)cc1 [Example 220] | LXRβ (Homo sapiens, UniProt P55055) | 782 nM |
| Cc1nc(C(F)(F)F)cn1-c1c(F)cc(-c2cc(F)c(CO)c(S(C)(=O)=O)c2)cc1-n1nncc1-c1ccc(Cl)cc1 [Example 198] | LXRβ (Homo sapiens, UniProt P55055) | 92 nM |
| Cc1nc(C(F)F)cn1-c1ccc(-c2ccc(CO)c(S(C)(=O)=O)c2)cc1-n1nncc1-c1ccc(OC(F)(F)F)cc1 [Example 159] | LXRβ (Homo sapiens, UniProt P55055) | 783 nM |

# map each compound to its EC50
1. CC(=O)c1ccc(-c2cnnn2-c2cc(-c3cccc(S(C)(=O)=O)c3)ccc2-n2cc(C(F)(F)F)nc2C)cc1 [Example 36]
2. Cc1nc(C(F)(F)F)cn1-c1ccc(-c2cccc(S(C)(=O)=O)c2)cc1-n1nncc1CC1CCC(C)CC1 (stereo not shown) [Example 127]
3. Cc1nc(C(F)(F)F)cn1-c1ccc(-c2cccc(S(C)(=O)=O)c2)cc1-c1nc(CCO)oc1-c1ccc2c(c1)OC(F)(F)O2 [Example 531]
4. Cc1nc(C(=O)C(C)C)cn1-c1ccc(-c2cc(F)c(CO)c(S(C)(=O)=O)c2)cc1-n1nncc1-c1ccc(OC(F)(F)F)cc1 [Example 235]
5. CNS(=O)(=O)c1cccc(-c2ccc(-n3cc(C(F)F)nc3C)c(-n3nncc3C(C)c3ccc(Cl)cc3)c2)c1 (stereo not shown) [Example 130]
6. Cc1nc(-c2cc(-c3cc(F)c(CO)c(S(C)(=O)=O)c3)ccc2-n2cc(C(F)(F)F)nc2C)c(-c2cc(F)cc(F)c2)o1 [Example 448]
7. Cc1nc(-c2cc(-c3cc(F)c(CO)c(S(C)(=O)=O)c3)ccc2-n2cc(C(F)(F)F)nc2C)c(-c2ccc(OC(F)(F)C(F)F)cc2)o1 [Example 544]
8. COc1ccc(-c2oc(C)nc2-c2cc(-c3cc(F)c(CO)c(S(C)(=O)=O)c3)ccc2-n2cc(C(F)(F)F)nc2C)cn1 [Example 570]

1. 724 nM
2. 776 nM
3. 422 nM
4. 2270 nM
5. 896 nM
6. 96 nM
7. 35 nM
8. 199 nM

May I ask what EC50 has been recorded for Cc1nc(-c2cc(-c3cccc(S(C)(=O)=O)c3)ccc2-n2cc(C(F)(F)F)nc2C)c(-c2ccc(Cl)cc2Cl)o1 [Example 486] ?
109 nM
